# Target system: Neu5Ac(a2-3)Gal(b1-4)[Fuc(a1-3)]GlcNAc6S
# Measurement notes: glycan array binding signal (z-score within array); higher = stronger binding
# Condition details: glycan notation: IUPAC condensed, linker removed
The entries come from a sample that favours the strongest signals as a whole.
Experimental endpoint: glycan array binding signal (z-score)

Indicate its recorded glycan array binding signal (z-score); the binder in question is HA-61200 (Pseudomonas aeruginosa), Q02SP8_PSEAB (protein) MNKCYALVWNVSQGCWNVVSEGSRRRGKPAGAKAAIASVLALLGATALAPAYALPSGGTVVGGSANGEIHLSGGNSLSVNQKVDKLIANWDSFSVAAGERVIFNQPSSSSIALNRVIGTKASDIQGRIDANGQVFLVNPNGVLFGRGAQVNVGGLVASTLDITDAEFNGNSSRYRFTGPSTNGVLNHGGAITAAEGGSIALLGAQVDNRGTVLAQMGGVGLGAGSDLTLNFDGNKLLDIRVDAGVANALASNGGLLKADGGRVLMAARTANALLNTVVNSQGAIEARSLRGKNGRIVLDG -0.953
